# SYSTEM_NAME: α1β3γ2L GABAAR (Mus musculus)
# Construct: expressed in transfected cells; host or cells: HEK 293 cells (ATCC CRL-1573)
# METHOD_SUMMARY: Whole-cell voltage-clamp electrophysiology, wild-type α1β3γ2L GABAARs expressed in HEK cells
# Type: cell-based, murine
# PROTOCOL_CONDITIONS: 1 nM PS analogue; 30 μM GABA
Measured mean (weighted) decay time (τw) of GABA current by item
Quick note: give the figure in s, leave out the unit.

1. C[C@]12CC[C@H](OS(=O)(=O)O)CC1=CCC1C2CC[C@@]2(C)C1CC[C@@H]2C(=O)Cn1ccnc1 (some centres unmarked) = 3.8
2. CC12CCC(OS(=O)(=O)O)CC1=CCC1C2CCC2(C)C(C(=O)Cn3cccc3)CCC12 (centres unmarked) = 3.6

[ask] Which measured mean (weighted) decay time (τw) of GABA current value corresponds to CC12CCC(OS(=O)(=O)O)CC1=CCC1C2CCC2(C)C(C(=O)CBr)CCC12 (centres unmarked) ?
[reply] 3.8

[ask] Which measured mean (weighted) decay time (τw) of GABA current value corresponds to C[C@]12CC[C@H](OS(=O)(=O)O)CC1=CCC1C2CC[C@@]2(C)C1CC[C@@H]2C(=O)Cn1cccn1 (some centres unmarked) ?
[reply] 3.8

[ask] Which measured mean (weighted) decay time (τw) of GABA current value corresponds to C[C@]12CC[C@H](OS(=O)(=O)O)CC1=CCC1C2CC[C@@]2(C)C1CC[C@@H]2C(=O)CN1CCOCC1 (some centres unmarked) ?
[reply] 3.7

* * *

# SYSTEM_NAME: α1β3γ2L GABAAR (Mus musculus, UniProt P22723+P62812+P63080)
# Construct: expressed in transfected cells; host or cells: HEK 293 cells (ATCC CRL-1573)
# Sequence (P62812 28-455): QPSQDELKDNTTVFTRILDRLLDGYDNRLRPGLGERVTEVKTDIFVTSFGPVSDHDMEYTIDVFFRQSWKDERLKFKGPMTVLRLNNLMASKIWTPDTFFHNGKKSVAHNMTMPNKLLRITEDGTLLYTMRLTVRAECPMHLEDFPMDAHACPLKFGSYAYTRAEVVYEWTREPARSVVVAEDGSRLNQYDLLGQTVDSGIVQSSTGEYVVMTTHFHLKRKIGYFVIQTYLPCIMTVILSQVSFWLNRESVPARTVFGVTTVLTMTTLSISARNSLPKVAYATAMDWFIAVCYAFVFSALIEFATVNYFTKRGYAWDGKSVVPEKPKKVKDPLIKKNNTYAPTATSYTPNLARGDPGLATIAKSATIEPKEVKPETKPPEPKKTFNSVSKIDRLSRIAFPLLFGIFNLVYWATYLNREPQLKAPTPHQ
# Sequence (P63080 26-473 partner): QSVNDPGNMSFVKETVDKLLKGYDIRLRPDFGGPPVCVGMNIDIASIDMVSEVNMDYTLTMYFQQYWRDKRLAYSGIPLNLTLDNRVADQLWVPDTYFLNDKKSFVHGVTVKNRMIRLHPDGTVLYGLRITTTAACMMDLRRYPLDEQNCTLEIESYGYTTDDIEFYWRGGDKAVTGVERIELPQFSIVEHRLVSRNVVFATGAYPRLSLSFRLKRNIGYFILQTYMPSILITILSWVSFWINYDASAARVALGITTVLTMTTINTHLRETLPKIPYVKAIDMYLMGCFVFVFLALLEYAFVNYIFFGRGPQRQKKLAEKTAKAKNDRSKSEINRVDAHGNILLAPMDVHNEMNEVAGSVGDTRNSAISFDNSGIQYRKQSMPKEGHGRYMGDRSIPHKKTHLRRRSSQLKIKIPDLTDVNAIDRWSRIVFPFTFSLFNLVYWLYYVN
# Sequence (P22723 39-474 partner): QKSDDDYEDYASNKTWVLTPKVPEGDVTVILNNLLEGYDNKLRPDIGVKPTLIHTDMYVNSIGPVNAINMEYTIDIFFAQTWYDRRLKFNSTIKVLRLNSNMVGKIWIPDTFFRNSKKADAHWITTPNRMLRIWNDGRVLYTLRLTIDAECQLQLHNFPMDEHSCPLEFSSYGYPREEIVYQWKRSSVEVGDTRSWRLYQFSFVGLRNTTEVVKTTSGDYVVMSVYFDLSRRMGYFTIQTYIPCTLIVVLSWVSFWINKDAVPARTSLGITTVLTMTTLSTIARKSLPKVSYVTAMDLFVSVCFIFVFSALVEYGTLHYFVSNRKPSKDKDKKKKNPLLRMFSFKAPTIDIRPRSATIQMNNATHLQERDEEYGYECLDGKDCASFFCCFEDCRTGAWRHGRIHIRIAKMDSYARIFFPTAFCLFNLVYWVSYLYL
# METHOD_SUMMARY: Whole-cell voltage-clamp electrophysiology, wild-type α1β3γ2L GABAARs expressed in HEK cells
# Type: cell-based, murine
# PROTOCOL_CONDITIONS: Decay inhibition (pIC50), potency for reducing GABA current weighted decay time constant; 30 μM GABA
pIC50: −log10 of the molar value.
// rule not met strictly below 5 in pIC50; rule met otherwise

Examples with answers:
1) C[C@]12CC[C@H](OS(=O)(=O)O)CC1=CCC1C2CC[C@@]2(C)C1CC[C@@H]2C(=O)Cn1cccn1 (some centres unmarked) [compound 6] = rule met
2) CC12CCC(OS(=O)(=O)O)CC1=CCC1C2CCC2(C)C(C(=O)CBr)CCC12 (centres unmarked) [compound 2] = rule met
3) CC12CCC(OS(=O)(=O)O)CC1=CCC1C2CCC2(C)C(C(=O)Cn3cccc3)CCC12 (centres unmarked) [compound 8] = rule met

[ask] Hi team, for C[C@]12CC[C@H](OS(=O)(=O)O)CC1=CCC1C2CC[C@@]2(C)C1CC[C@@H]2C(=O)CN1CCOCC1 (some centres unmarked) [compound 5] , is the recorded pIC50 at or above 5?
[reply] rule not met

* * *

# SYSTEM_NAME: α1F295Aβ3γ2L GABAAR (Mus musculus, UniProt P22723+P62812+P63080, F322A)
# Construct: expressed in transfected cells; host or cells: HEK 293 cells (ATCC CRL-1573)
# Sequence (P62812 28-455 F322A): as the sequence (P62812 28-455) above, with F295A counted along it
# Sequence (P63080 26-473 partner): as the sequence (P63080 26-473 partner) above
# Sequence (P22723 39-474 partner): as the sequence (P22723 39-474 partner) above
# METHOD_SUMMARY: Whole-cell voltage-clamp electrophysiology, mutant α1F295Aβ3γ2L in HEK cells
# Type: cell-based, murine
# PROTOCOL_CONDITIONS: Steady-state inhibition (pIC50), 30 μM GABA, 20 s
QUANTITY_MEASURED: pIC50
Formally, pIC50 is defined as -log10 of the concentration c, with c in mol/L.

1) C[C@]12CC[C@H](OS(=O)(=O)O)CC1=CCC1C2CC[C@@]2(C)C1CC[C@@H]2C(=O)CN1CCOCC1 (some centres unmarked) = 5.53

Then there is this compound:
[ask] Which measured pIC50 value corresponds to C[C@]12CC[C@H](OS(=O)(=O)O)CC1=CCC1C2CC[C@@]2(C)C1CC[C@@H]2C(=O)Cn1cccn1 (some centres unmarked) ?
[reply] 5.35

* * *

# SYSTEM_NAME: α1F295A, F399Aβ3γ2L GABAAR (Mus musculus, UniProt P22723+P62812+P63080, F322A/F426A)
# Construct: expressed in transfected cells; host or cells: HEK 293 cells (ATCC CRL-1573)
# METHOD_SUMMARY: Whole-cell voltage-clamp electrophysiology, mutant α1F295A,F399Aβ3γ2L in HEK cells
# Assay type: cell-based, murine
# PROTOCOL_CONDITIONS: Steady-state inhibition (IC50), 30 μM GABA, 20 s
QUANTITY_MEASURED: IC50 (µM)
Quick note: give the figure in µM, leave out the unit.

[ask] Which measured IC50 value corresponds to C[C@]12CC[C@H](OS(=O)(=O)O)CC1=CCC1C2CC[C@@]2(C)C1CC[C@@H]2C(=O)Cn1cccn1 (stereo partly shown) [compound 6] ?
[reply] 4.2

* * *

# SYSTEM_NAME: α1β3γ2L GABAAR (Mus musculus, UniProt P22723+P62812+P63080)
# Construct: expressed in transfected cells; host or cells: HEK 293 cells (ATCC CRL-1573)
# METHOD_SUMMARY: Whole-cell voltage-clamp electrophysiology, wild-type α1β3γ2L GABAARs expressed in HEK cells
# Assay type: cell-based, murine
# PROTOCOL_CONDITIONS: Steady-state inhibition (pIC50), GABA current after 20 s of 30 μM GABA (near steady state)
# Protocol: HEK 293 cells (ATCC Cat# CRL‐1573, RRID:CVCL_0045) were maintained and transfected under standard conditions. […] Before transfection, HEK cells were plated onto 22 mm of glass coverslips (VWR) coated in poly‐L‐lysine (Sigma). […] Cells were selected for electrophysiology after 16–30 h based on their morphology and moderate GFP fluorescence. Coverslips with transfected HEK cells were transferred into a recording chamber on a Nikon Eclipse FN1 microscope with a 470‐nm LED for GFP fluorescence. […]
Measured pIC50 by item
Formally, pIC50 is defined as -log10 of the concentration c, with c in mol/L.

1. CC12CCC(OS(=O)(=O)O)CC1=CCC1C2CCC2(C)C(C(=O)Cn3cccc3)CCC12 (centres unmarked) [compound 8] = 6.63

[ask] Which measured pIC50 value corresponds to C[C@]12CC[C@H](OS(=O)(=O)O)CC1=CCC1C2CC[C@@]2(C)C1CC[C@@H]2C(=O)CN1CCOCC1 (some centres unmarked) [compound 5] ?
[reply] 6.07

[ask] Which measured pIC50 value corresponds to CC12CCC(OS(=O)(=O)O)CC1=CCC1C2CCC2(C)C(C(=O)CBr)CCC12 (centres unmarked) [compound 2] ?
[reply] 6.55

[ask] Which measured pIC50 value corresponds to C[C@]12CC[C@H](OS(=O)(=O)O)CC1=CCC1C2CC[C@@]2(C)C1CC[C@@H]2C(=O)Cn1cccn1 (some centres unmarked) [compound 6] ?
[reply] 5.95

[ask] Which measured pIC50 value corresponds to C[C@]12CC[C@H](OS(=O)(=O)O)CC1=CCC1C2CC[C@@]2(C)C1CC[C@@H]2C(=O)Cn1ccnc1 (some centres unmarked) [compound 3] ?
[reply] 6.05

* * *

# SYSTEM_NAME: α1V296Lβ3γ2L GABAAR (Mus musculus, UniProt P22723+P62812+P63080, V323L)
# Construct: expressed in transfected cells; host or cells: HEK 293 cells (ATCC CRL-1573)
# METHOD_SUMMARY: Whole-cell voltage-clamp electrophysiology, minimally desensitising mutant α1V296Lβ3γ2L in HEK cells
# Type: cell-based, murine
# PROTOCOL_CONDITIONS: Decay inhibition (pIC50), GABA current weighted decay time constant
QUANTITY_MEASURED: IC50 (µM)
Quick note: give the figure in µM, leave out the unit.

[ask] Which measured IC50 value corresponds to C[C@]12CC[C@H](OS(=O)(=O)O)CC1=CCC1C2CC[C@@]2(C)C1CC[C@@H]2C(=O)CN1CCOCC1 (stereo partly shown) [compound 5] ?
[reply] 3.24

* * *

# SYSTEM_NAME: α1β3γ2L GABAAR (Mus musculus, UniProt P22723+P62812+P63080)
# Construct: expressed in transfected cells; host or cells: HEK 293 cells (ATCC CRL-1573)
# METHOD_SUMMARY: Whole-cell voltage-clamp electrophysiology, wild-type α1β3γ2L GABAARs expressed in HEK cells
# Type: cell-based, murine
# PROTOCOL_CONDITIONS: Peak inhibition (IC50), peak current evoked by 30 μM GABA; analogue pre-applied 10–12 s and co-applied
QUANTITY_MEASURED: IC50 (µM)
Quick note: give the figure in µM, leave out the unit.

1. CC12CCC(OS(=O)(=O)O)CC1=CCC1C2CCC2(C)C(C(=O)CBr)CCC12 (centres unmarked) = 2.7

[ask] Which measured IC50 value corresponds to C[C@]12CC[C@H](OS(=O)(=O)O)CC1=CCC1C2CC[C@@]2(C)C1CC[C@@H]2C(=O)Cn1ccnc1 (some centres unmarked) ?
[reply] 743

Entry source: paper PMC10952582
